- system.under.test: MAGE-A11:PCF11 (Homo sapiens (Human))
- Sequence (P43364 218-429): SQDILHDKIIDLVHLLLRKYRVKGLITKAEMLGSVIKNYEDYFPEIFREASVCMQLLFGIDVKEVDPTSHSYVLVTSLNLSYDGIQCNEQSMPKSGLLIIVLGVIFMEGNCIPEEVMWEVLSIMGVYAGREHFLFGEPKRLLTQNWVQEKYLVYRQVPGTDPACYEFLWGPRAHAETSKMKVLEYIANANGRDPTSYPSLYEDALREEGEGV
- measurement.notes: TR-FRET single point screening at 15 μM
- Format: binding
- Parameters: unit not given here
- stated.conditions: single point TR-FRET screening of quinoline compounds against MAGE-A11:PCF11; 15 μM
- Text: TR-FRET Assays and High-throughput Screen. Terbium-anti-GST antibody, 1 M Tris pH 7.5 1 M MgCl2 and 1 M DTT were purchased from Invitrogen (Carlsbad, CA), BSA was purchased from Sigma (St. Louis, MO). Dimethyl sulfoxide (DMSO) was purchased from Fisher Scientific (Pittsburgh, PA). Black 384-well low volume plates and 384-well polypropylene compound plates were purchased from Corning Incorporated (Tewksbury, MA). […]
Consider the following compounds and their measured TR-FRET signal readings.
Simply state the number, no unit and no words.

Check out these entries, answers already filled in.
>>> print(df.to_string())
                                   compound  measurement_kind  measured_value
0  CCCN(CCCNc1c2ccc(Cl)cc2nc2ccc(OC)cc12)Cc1ccccc1OC(F)(F)F [SJ000522961]    TR-FRET signal           22.69
1  CCCN(CCCNc1c2ccc(Cl)cc2nc2ccc(OC)cc12)Cc1nc(C)cs1 [SJ000522966]    TR-FRET signal          −82.15
2  CCCN(CCCNc1ccnc2cc(C(F)(F)F)ccc12)Cc1ccccc1[N+](=O)[O-] [SJ000523071]    TR-FRET signal          −7.745
3  CCCN(CCCNc1ccnc2cc(Cl)ccc12)Cc1ccccc1 [SJ000357431]    TR-FRET signal           19.14
4  CCCN(CCCNc1ccnc2cc(Cl)ccc12)Cc1ccsc1 [SJ000522744]    TR-FRET signal           7.824
5  CCCN(CCCNc1c2ccc(Cl)cc2nc2ccc(OC)cc12)Cc1nc2ccccc2s1 [SJ000522969]    TR-FRET signal          −68.77
6  CC(C)(C)c1ccc(Oc2ccc3c(NCCCNCc4ccco4)ccnc3c2)cc1 [SJ000311234]    TR-FRET signal           57.54
7  Clc1ccc2c(NCCCN(Cc3ccccc3)Cc3cccs3)ccnc2c1 [SJ000312672]    TR-FRET signal           4.744
8  Fc1ccccc1CN(CCCNc1ccnc2cc(Cl)ccc12)Cc1ccccc1 [SJ000361175]    TR-FRET signal          0.9627
9  Cc1cc(C)cc(Cc2ccc3c(NCCCNCc4ccco4)ccnc3c2)c1 [SJ000311318]    TR-FRET signal           39.31

Quick one: TR-FRET signal of CCCN(CCCNc1ccnc2cc(C(F)(F)F)ccc12)Cc1c(F)cccc1C(F)(F)F [SJ000520481] ?
11.47

Consider the compound Clc1ccc2c(NCCCN(Cc3ccccc3)Cc3ccc(Br)s3)ccnc2c1 [SJ000357461] and give its measured TR-FRET signal.
27.5
